Reported pKi for target or system Substance-P receptor (Cavia porcellus, UniProt P30547), by entry.
pKi: −log10 of the molar value. Starred links: 1 amine or outer side, 2 acyl side, 3 side chain; linkers in the order of their positions; H or OH if unused. Positions of bridges follow the written chain, without caps; N, C: chain ends. Non-standard residues stand in square brackets, D forms with d. Residues, ends and D or L forms follow the SMILES beside them. *: point of attachment. X2 = CN(C(=Cc1ccc(O)cc1)C(=O)[*:2])[*:1]; X1 = CCCCCc1ccccc1CCC(=O)*
property name: pKi

>>> recorded_number("COc1cc(C(=O)N2CC[C@@](CCN3CCC(C(N)=O)(c4ccccc4)CC3)(c3ccc(Cl)c(Cl)c3)C2)cc(OC)c1OC")
8.67
>>> recorded_number("CC(=O)NC1(c2ccccc2)CCN(CCC(CN(C)C(=O)c2ccccc2)c2ccc(Cl)c(Cl)c2)CC1 (stereo unspecified) [SR 48968]")
6.66
>>> recorded_number("CCCCCc1ccccc1CCC(=O)NC1C(=O)N(C)C(=Cc2ccc(O)cc2)C(=O)NC(CC(C)C)C(=O)NC(Cc2ccccc2)C(=O)NC(C(C)O)C(=O)NC(CC(N)=O)C(=O)NC(CO)C(=O)OC1C (stereo unspecified) [CAS_6437864] (X1-T[X2]LFTNS; ester 1-C; configuration not given here)")
7.01
>>> recorded_number("COc1cc(C(=O)N2CC[C@@](CCN3CCC(C(N)=O)(c4ccccc4)CC3)(c3ccc(Cl)c(Cl)c3)C2)cc(OC)c1OC [MDL 105,212A (R)-enantiomer]")
8.52

###

Target: UniProtKB P30098
Sequence (P30098 whole entry): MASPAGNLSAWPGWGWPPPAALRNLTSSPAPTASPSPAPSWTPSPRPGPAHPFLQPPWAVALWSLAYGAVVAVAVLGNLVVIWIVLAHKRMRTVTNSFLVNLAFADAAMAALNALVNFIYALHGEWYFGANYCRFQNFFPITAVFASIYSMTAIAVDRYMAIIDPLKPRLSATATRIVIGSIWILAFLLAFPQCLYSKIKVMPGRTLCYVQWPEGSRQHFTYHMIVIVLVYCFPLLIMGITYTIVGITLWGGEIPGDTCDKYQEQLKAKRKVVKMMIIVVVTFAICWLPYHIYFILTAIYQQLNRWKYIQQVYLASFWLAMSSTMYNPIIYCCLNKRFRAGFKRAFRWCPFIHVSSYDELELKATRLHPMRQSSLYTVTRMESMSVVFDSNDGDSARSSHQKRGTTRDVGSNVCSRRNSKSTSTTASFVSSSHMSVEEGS
Starred links: 1 amine or outer side, 2 acyl side, 3 side chain; linkers in the order of their positions; H or OH if unused. Positions of bridges follow the written chain, without caps; N, C: chain ends. Non-standard residues stand in square brackets, D forms with d. Residues, ends and D or L forms follow the SMILES beside them. *: point of attachment. X2 = CN(C(=Cc1ccc(O)cc1)C(=O)[*:2])[*:1]; X1 = CCCCCc1ccccc1CCC(=O)*
Readings of Ki for the listed compounds
property name: Ki (µM)

>>> recorded_number("CCCCCc1ccccc1CCC(=O)NC1C(=O)N(C)C(=Cc2ccc(O)cc2)C(=O)NC(CC(C)C)C(=O)NC(Cc2ccccc2)C(=O)NC(C(C)O)C(=O)NC(CC(N)=O)C(=O)NC(CO)C(=O)OC1C (configuration not stated) [CAS_6437864] (X1-T[X2]LFTNS; ester 1-C; configuration not given here)")
3.55
>>> recorded_number("CN(Cc1ccccc1)C(=O)[C@@H](Cc1ccc2ccccc2c1)NC(=O)C1C[C@@H](O)CN1C(=O)c1cn(C)c2ccccc12 (some centres not stated)")
5.62
>>> recorded_number("COc1cc(C(=O)N2CC[C@@](CCN3CCC(C(N)=O)(c4ccccc4)CC3)(c3ccc(Cl)c(Cl)c3)C2)cc(OC)c1OC")
0.021
>>> recorded_number("CC(=O)NC1(c2ccccc2)CCN(CCC(CN(C)C(=O)c2ccccc2)c2ccc(Cl)c(Cl)c2)CC1 (configuration not stated)")
0.208

###

Starred links: 1 amine or outer side, 2 acyl side, 3 side chain; linkers in the order of their positions; H or OH if unused. Positions of bridges follow the written chain, without caps; N, C: chain ends. Non-standard residues stand in square brackets, D forms with d. Residues, ends and D or L forms follow the SMILES beside them. *: point of attachment. X2 = CN(C(=Cc1ccc(O)cc1)C(=O)[*:2])[*:1]; X1 = CCCCCc1ccccc1CCC(=O)*
Reported Ki for target or system Substance-K receptor (Mesocricetus auratus), by entry.
property name: Ki (nM)

>>> recorded_number("CC(=O)NC1(c2ccccc2)CCN(CCC(CN(C)C(=O)c2ccccc2)c2ccc(Cl)c(Cl)c2)CC1 (stereo not given) [SR 48968]")
7.32
>>> recorded_number("COc1cc(C(=O)N2CC[C@@](CCN3CCC(C(N)=O)(c4ccccc4)CC3)(c3ccc(Cl)c(Cl)c3)C2)cc(OC)c1OC")
6.98
>>> recorded_number("CCCCCc1ccccc1CCC(=O)NC1C(=O)N(C)C(=Cc2ccc(O)cc2)C(=O)NC(CC(C)C)C(=O)NC(Cc2ccccc2)C(=O)NC(C(C)O)C(=O)NC(CC(N)=O)C(=O)NC(CO)C(=O)OC1C (stereo not given) [CAS_6437864] (X1-T[X2]LFTNS; ester 1-C; configuration not given here)")
3590
>>> recorded_number("CSCC[C@H](NC(=O)[C@H](CC(C)C)NC(=O)CNC(=O)[C@@H](NC(=O)[C@H](Cc1ccccc1)NC(=O)[C@H](CO)NC(=O)[C@H](CC(=O)O)NC(=O)[C@@H](NC(=O)[C@H](CCCCN)NC(=O)[C@@H](N)Cc1cnc[nH]1)[C@@H](C)O)C(C)C)C(N)=O [Neurokinin alpha]")
1.8
>>> recorded_number("COc1cc(C(=O)N2CC[C@](CCN3CCC(C(N)=O)(c4ccccc4)CC3)(c3ccc(Cl)c(Cl)c3)C2)cc(OC)c1OC")
711
